Biological target: Luciferin 4-monooxygenase (Photinus pyralis) (UniProt P08659)
Sequence (P08659 whole entry, looked up): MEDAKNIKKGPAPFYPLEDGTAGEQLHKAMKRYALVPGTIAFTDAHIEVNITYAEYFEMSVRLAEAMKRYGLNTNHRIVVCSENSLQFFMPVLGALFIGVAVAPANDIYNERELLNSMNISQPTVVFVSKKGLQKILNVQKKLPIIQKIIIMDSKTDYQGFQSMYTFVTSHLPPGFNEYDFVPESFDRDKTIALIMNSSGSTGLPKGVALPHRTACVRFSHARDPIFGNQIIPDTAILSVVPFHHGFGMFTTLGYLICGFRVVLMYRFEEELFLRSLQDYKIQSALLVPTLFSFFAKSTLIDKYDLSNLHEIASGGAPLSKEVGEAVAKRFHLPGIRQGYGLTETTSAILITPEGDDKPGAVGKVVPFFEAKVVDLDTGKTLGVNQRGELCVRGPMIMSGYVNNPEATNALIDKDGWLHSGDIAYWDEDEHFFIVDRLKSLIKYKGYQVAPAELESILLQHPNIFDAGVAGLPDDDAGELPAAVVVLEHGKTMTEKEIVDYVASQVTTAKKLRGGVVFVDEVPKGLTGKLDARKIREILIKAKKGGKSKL
Assay: firefly luciferase enzyme inhibitors, primary screen, biochemical, luminescence, purified enzyme, 2006 set (AID 1141);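 also: cell-free assay with purified firefly luciferase at 100 ng per well in PBS; test concentration not given here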
Conditions: SteadyGlo luminescence, 30 min, called active from +8 up or from −8 down
Active and inactive are the calls of the source.
Outcome (select one): 1 = active, -1 = inactive

Field: example entries. Status: answers known.
COC(=O)[C@@]1(Cc2ccc(F)cc2)[C@H]2c3cc(C(=O)N(C)C)n(Cc4ccc(Cl)c(C(F)(F)F)c4)c3C[C@H]2CN1C(=O)c1ccccc1: -1
COC(=O)C[C@H]1O[C@]2(C(=O)N(C)c3ccccc32)[C@@H](C)[C@@H]1[Si](C)(C)F: -1
CC(=O)NCCCC[C@@H]1NC(=O)[C@@H]2C[C@H](C(=O)NCCCCCNC(=O)CS)[C@H](c3cccc(OCCO)c3)N2C1=O: -1
COc1ccc(CCNC(=O)[C@@]2(Sc3ccc(C)cc3)CC(=O)N(C(C)C)[C@@H]2c2ccc(CO)cc2I)cc1: -1

Q: Hi, do you know how `COC(=O)[C@@]1(Cc2ccc(OC)cc2)[C@H]2c3cc(C(=O)N(C)C)n(Cc4ccc(S(C)(=O)=O)cc4)c3C[C@H]2CN1C(=O)c1ccccc1` came out in this test?
A: -1

Q: Hi, do you know how CCC(CC)C(O)C1C=CC2C(=O)NC(=O)C2N1Nc1ccccn1 (stereo not drawn) came out in this test?
A: -1

Q: Hi, do you know how `C=CC[C@@]12N=C(c3ccc(OCCCO)cc3)O[C@@H]1c1ccccc1N(C)C2=O` came out in this test?
A: -1

Q: Hi, do you know how `COCCOC(=O)N1C(=O)[C@@]2(c3cc(C#Cc4ccc(OC)cc4)ccc31)[C@H](c1ccc(O)cc1)N1[C@H](c3ccccc3)[C@H](c3ccccc3)OC(=O)[C@H]1[C@@H]2C(=O)N1CCc2cc(OC)c(OC)cc2C1` came out in this test?
A: -1

Q: Hi, do you know how `O=C(c1ccccc1)N1Cc2ccccc2C[C@@]2(COC(c3ccc(OCCCO)cc3)=N2)C1=O` came out in this test?
A: -1

Q: Hi, do you know how `CC(C)C(=C=CC[C@@H](O)c1ccc(OCCO)cc1)C[C@@H](O)COCc1ccccc1` came out in this test?
A: -1

Q: Hi, do you know how `COC(=O)[C@@]1(Cc2ccc(OC)cc2)[C@@H]2C(=CC(=O)[C@H]2CC(=O)C(=O)N2CCCC2)CN1C(=O)c1ccccc1` came out in this test?
A: -1

Q: Hi, do you know how `C=CCNC(=O)[C@H]1[C@@H]2C(=O)O[C@@H](c3ccccc3)[C@@H](c3ccccc3)N2[C@@H](c2ccccc2OCCO)[C@]12C(=O)Nc1ccc(C#CCCO)cc12` came out in this test?
A: -1

Q: Hi, do you know how CN1C(=O)C2C=CC(C(O)c3ccco3)N(Nc3ccccc3)C2C1=O (stereo not drawn) came out in this test?
A: -1

Q: Hi, do you know how `C[C@@]1([C@@H](NC(=O)c2ccc(-c3ccccc3)cc2)c2ccc(Cl)cc2)C[C@H]1C1CCCCC1` came out in this test?
A: -1

Q: Hi, do you know how C=C(C)[C@@H]1CC=C(C(O)C2C=CC3C(=O)N(C)C(=O)C3N2Nc2ccccc2)CC1 (stereo partly drawn) came out in this test?
A: -1

Q: Hi, do you know how `COc1ccccc1CN1C(=O)c2ccccc2[C@@H](C(=O)NC2CC2)[C@@H]1c1ccc(CO)cc1` came out in this test?
A: -1

Q: Hi, do you know how `CCOC(=O)C[C@H]1[C@H](OC(=O)c2ccc(C(=O)c3ccccc3)cc2)[C@@H](NC(=O)c2ccc3ccccc3c2)c2cc(OCCCO)ccc2N1C(=O)Cc1ccc(OC)cc1` came out in this test?
A: -1
